Overview of recorded TGI for various compounds
Tested on: HT29 colon
Assay: NCI tumour cell line growth inhibition, 48 h
parameter: TGI

[[record]]
compound = "O=Cc1ccc(Oc2c3ccccc3nc3ccccc23)cc1"
result = "4.38 µM"

[[record]]
compound = "O=C1OC(=O)C2C1C1(c3ccccc3)OC2(c2ccccc2)c2c(Br)c(Br)c(Br)c(Br)c21 (stereo not drawn)"
result = "> 100 µM"

[[record]]
compound = "CN(C)CCNc1nc2c(c(=O)n(C)c(=O)n2C)n1C"
result = "> 100 µM"

[[record]]
compound = "COC1=C2C[C@](OC)(C#CC=CC#CC2O)CC1(C)C (stereo partly drawn)"
result = "> 100 µM"

[[record]]
compound = "O=C(O)c1cccc(F)c1C(=O)c1ccc2ccccc2c1"
result = "> 100 µM"

[[record]]
compound = "Cc1nc2c(ccc3[nH]c4ccccc4c32)s1"
result = "31.3 µM"

[[record]]
compound = "CC(=O)SC(C[N+](=O)[O-])c1ccccc1 (stereo not drawn)"
result = "4.22 µM"

[[record]]
compound = "O=C(O)COc1cccc2ccccc(=O)c12"
result = "> 100 µM"

[[record]]
compound = "O=C(Nc1ccc(-n2cc(-c3ccncc3)c(-c3ccc(Cl)c(O)c3)n2)cc1)c1ccc(Cl)c(C(F)(F)F)c1"
result = "3.05 µM"

[[record]]
compound = "Nc1ncnc2c1c(-c1ccc(Oc3ccccc3)cc1)nn2C[C@H]1SSC[C@H]1O"
result = "1.48 µM"

[[record]]
compound = "Cc1nc2ccccc2n1Cc1ccc(NC(=S)NC2CCCCC2)cc1"
result = "> 100 µM"

[[record]]
compound = "COc1cc(/C=C/C(=O)c2ccc(SC)cc2)cc(OC)c1OC"
result = "24.4 µM"

[[record]]
compound = "COc1ccc(/C=C/c2cnnc3ccccc23)cc1OC"
result = "> 10 µM"

[[record]]
compound = "CCCCCCOc1ccc(/C=N/Nc2cc(C)nc3ccc(Br)cc23)cc1"
result = "3.12 µM"

[[record]]
compound = "COc1ccc(/C=C2\\CCC(CN(C)C)C2=O)cc1 (stereo not drawn)"
result = "24.1 µM"

[[record]]
compound = "O=C(O)Cc1ccc(-n2nnc3c(=O)[nH][nH]c(=O)c32)cc1"
result = "> 100 µM"

[[record]]
compound = "O=C1C=C(NCCc2ccc(O)cc2)C(=O)C=C1NCCc1ccc(O)cc1"
result = "> 100 µM"

[[record]]
compound = "Nc1c(S(=O)(=O)O)cc2c(c1Cl)C(=O)c1ccccc1C2=O"
result = "> 100 µM"

[[record]]
compound = "Cc1nc(N(C)C)nc(-c2cccc(-c3ccn(CCN(C)C)n3)c2)c1C"
result = "> 20 µM"

[[record]]
compound = "COc1cc(C2C(C(=O)Nc3ccccc3C)=C(C)NC(C)=C2C(=O)Nc2ccccc2C)ccc1O"
result = "> 100 µM"

[[record]]
compound = "COC(=O)CC(c1ccccc1)C(C#N)(OP1(=O)OC(c2ccccc2)C(C)N1C)c1ccccc1 (stereo not drawn)"
result = "> 100 µM"

[[record]]
compound = "COc1cc(/C=C2\\CCCC3=C2N=C2SC=NN2C3c2cc(OC)c(OC)c(OC)c2)cc(OC)c1OC (stereo not drawn)"
result = "7.41 µM"

[[record]]
compound = "NCCCSCC(=O)O"
result = "> 100 µM"


----------
Overview of recorded GI50 for various compounds
Test system: SF-295 CNS
Assay: NCI tumour cell line growth inhibition, 48 h
parameter: GI50

[[record]]
compound = "COc1cc2c(cc1OC)-c1c(c3ccc([N+](=O)[O-])cc3c(=O)n1CCCBr)C2=O"
measured_target = "SF-295 CNS"
result = "9070 nM"

[[record]]
compound = "O=C(/C=C/c1ccco1)c1cccc(Nc2nc(Nc3ccccc3)nc(Nc3ccccc3)n2)c1"
measured_target = "SF-295 CNS"
result = "2940 nM"

[[record]]
compound = "Nc1ncnc2c1c(-c1ccc(Oc3ccccc3)cc1)nn2C[C@H]1SSC[C@H]1O"
measured_target = "SF-295 CNS"
result = "678 nM"

[[record]]
compound = "NC(CSC(c1ccccc1)(c1ccccc1)c1ccc(Br)cc1)C(=O)O (stereo not given)"
measured_target = "SF-295 CNS"
result = "76.4 nM"

[[record]]
compound = "C/C(=N\\O)c1ccc(Nc2cc(-c3ccccc3)nc3c(O)cccc23)cc1"
measured_target = "SF-295 CNS"
result = "5240 nM"

[[record]]
compound = "COc1cc(-c2cc(C(=O)N3CCN(C(=O)c4ccccc4NCc4cccs4)CC3)nc3cc(-c4ccccc4)nn23)cc(OC)c1OC"
measured_target = "SF-295 CNS"
result = "3780 nM"

[[record]]
compound = "CCCCCCCCCCCC(=O)[O][Sn]([CH2]CCC)([CH2]CCC)[CH2]CCC"
measured_target = "SF-295 CNS"
result = "67.9 nM"

[[record]]
compound = "O=[N+]([O-])c1ccc(N/N=C\\c2ccc(O)cc2O)nc1"
measured_target = "SF-295 CNS"
result = "2960 nM"

[[record]]
compound = "COc1cc(-c2nc3cc(Cl)c(Cl)cc3[nH]2)ccc1OCC(=O)N=Nc1c(O)[nH]c2ccccc12"
measured_target = "SF-295 CNS"
result = "1280 nM"

[[record]]
compound = "COc1ccc(-c2nn(C(=O)c3cc(OC)c(OC)c(OC)c3)c3cc(N)ccc23)cc1"
measured_target = "SF-295 CNS"
result = "< 10 nM"


----------
Overview of recorded GI50 for various molecules
Test system: A549 NSCLC
Experiment: NCI tumour cell line growth inhibition, 48 h
parameter: GI50

[[record]]
molecule = "O=c1c(-c2nc3ccccc3[nH]2)cc2ccccc2n1Cc1cn(Cc2ccc(F)cc2)nn1"
parameter = "GI50"
result = "0.116 µM"

[[record]]
molecule = "CN(Cc1cccc(Cl)c1)c1ccc(CO)c(Cl)c1"
parameter = "GI50"
result = "5.19 µM"

[[record]]
molecule = "Cc1nc(N(C)C)nc(-c2cccc(-c3ccn(CCN(C)C)n3)c2)c1C"
parameter = "GI50"
result = "> 20 µM"

[[record]]
molecule = "Nc1c2c(c(O)c3c1=C(CO)C=N3)=NCCS2=O (configuration not stated)"
parameter = "GI50"
result = "1.72 µM"

[[record]]
molecule = "OC(c1cc2c(Cl)cc(Cl)cc2c2cc(C(F)(F)F)ccc12)C1CCCCN1 (configuration not stated)"
parameter = "GI50"
result = "1.85 µM"

[[record]]
molecule = "COc1ccc(-c2nn(C(=O)c3cc(OC)c(OC)c(OC)c3)c3cc(N)ccc23)cc1"
parameter = "GI50"
result = "< 0.0146 µM"

[[record]]
molecule = "NC(CSC(c1ccccc1)(c1ccccc1)c1ccc(Br)cc1)C(=O)O (configuration not stated)"
parameter = "GI50"
result = "0.375 µM"


----------
System: SK-MEL-28 melanoma
Assay: NCI tumour cell line growth inhibition, 48 h
Overview of recorded TGI for various molecules
parameter: TGI

[[record]]
molecule = "ClC1(Cl)C2CCOC21n1cnc2ccccc21 (stereo unspecified)"
parameter = "TGI"
result = "> 100 µM"

[[record]]
molecule = "c1ccc(Oc2cnc3ccccc3n2)cc1"
parameter = "TGI"
result = "> 100 µM"

[[record]]
molecule = "OC1/C(=C/c2ccccc2)CNC/C1=C\\c1ccccc1 (stereo unspecified)"
parameter = "TGI"
result = "> 100 µM"

[[record]]
molecule = "O=C(O)COc1cccc2ccccc(=O)c12"
parameter = "TGI"
result = "> 100 µM"

[[record]]
molecule = "C=CCOc1ccc2c(c1)CC[C@@H]1[C@@H]2CC[C@]2(C)C(=O)/C(=N/O)C[C@@H]12"
parameter = "TGI"
result = "> 75.1 µM"

[[record]]
molecule = "COc1cc(C2C(C(=O)Nc3ccccc3C)=C(C)NC(C)=C2C(=O)Nc2ccccc2C)ccc1O"
parameter = "TGI"
result = "> 100 µM"


----------
Overview of recorded TGI for various compounds
Tested on: UO-31 renal
Assay: NCI tumour cell line growth inhibition, 48 h
parameter: TGI

[[record]]
compound = "COc1ccc(S(=O)(=O)Nc2c(/C=C\\c3cc(OC)c(OC)c(OC)c3)ccc(OC)c2O)cc1OC"
parameter = "TGI"
result = "> 100 µM"

[[record]]
compound = "O=C(Nc1ccc(-n2cc(-c3ccncc3)c(-c3ccc(Cl)c(O)c3)n2)cc1)c1ccc(Cl)c(C(F)(F)F)c1"
parameter = "TGI"
result = "2.42 µM"

[[record]]
compound = "C[C@]12CC[C@H](O)CC1CCC[C@@H]2O (some centres undefined)"
parameter = "TGI"
result = "> 100 µM"

[[record]]
compound = "CN1CCN(C(=S)N(C(=O)c2ccc(Cl)cc2)C2CCCCC2)CC1"
parameter = "TGI"
result = "> 100 µM"

[[record]]
compound = "COc1ccc2nc3c(cc2c1)C(=O)CC(C(F)(F)F)C3 (centres undefined)"
parameter = "TGI"
result = "> 100 µM"

[[record]]
compound = "CC1(C)C(=O)C2(N)CCC1C2 (centres undefined)"
parameter = "TGI"
result = "> 100 µM"

[[record]]
compound = "O=C1/C=C/[C@@H](O)[C@@H]2C[C@@H](O)C[C@H]2/C=C/CCCCO1"
parameter = "TGI"
result = "> 38.1 µM"

[[record]]
compound = "NC(=O)NC(=O)c1cccc(C(=O)NC(N)=O)n1"
parameter = "TGI"
result = "> 100 µM"

[[record]]
compound = "C=C(C)[C@H]1C=C[C@@H](OC(C)=O)[C@@]2(COC(C)=O)[C@H](OC(=O)CCC)[C@H]3[C@@H](OC(C)=O)[C@@H](C)C[C@]3(O)C(=O)[C@@](C)(OC(C)=O)[C@H]12"
parameter = "TGI"
result = "> 100 µM"

[[record]]
compound = "COc1ccc(-c2nc3ccccc3c(=O)[nH]2)cc1OC"
parameter = "TGI"
result = "> 100 µM"

[[record]]
compound = "COC(=O)CCC(=O)c1ccc2c(c1)CC1(Cc3ccccc3C1)C2"
parameter = "TGI"
result = "80.3 µM"

[[record]]
compound = "COc1cc(Nc2nccc(-c3cnn4ncccc34)n2)cc(OC)c1"
parameter = "TGI"
result = "0.196 µM"

[[record]]
compound = "O=C1CCC(=O)C12CCc1ccccc12"
parameter = "TGI"
result = "> 100 µM"

[[record]]
compound = "C=CCOC1=C(OC(C)=O)C(C2COC(C)(C)O2)OC1=O (centres undefined)"
parameter = "TGI"
result = "33 µM"

[[record]]
compound = "COc1cc(C2C(C(=O)Nc3ccccc3C)=C(C)NC(C)=C2C(=O)Nc2ccccc2C)ccc1O"
parameter = "TGI"
result = "> 100 µM"

[[record]]
compound = "O=c1n(CC2CO2)c2ccccc2n1CC1CS1 (centres undefined)"
parameter = "TGI"
result = "> 100 µM"

[[record]]
compound = "c1ccc2c(CCNC3=NCCO3)cccc2c1"
parameter = "TGI"
result = "> 10 µM"

[[record]]
compound = "COc1cc(/C=C/C(=O)c2ccc(SC)cc2)cc(OC)c1OC"
parameter = "TGI"
result = "23 µM"

[[record]]
compound = "COc1ccc(-c2nn(C(=O)c3cc(OC)c(OC)c(OC)c3)c3cc(N)ccc23)cc1"
parameter = "TGI"
result = "5.05 µM"

[[record]]
compound = "CC1(C)OC(=O)C(c2ccsc2)C(=O)O1"
parameter = "TGI"
result = "> 100 µM"

[[record]]
compound = "CSc1nnc2n1-c1ccccc1SCC2"
parameter = "TGI"
result = "> 100 µM"

[[record]]
compound = "COc1ccc(Nc2cnc3cc(N)ccc3n2)cc1OC"
parameter = "TGI"
result = "> 100 µM"

[[record]]
compound = "CCc1cc(Cc2cc(CC)cc(C(C)(C)C)c2O)c(O)c(C(C)(C)C)c1"
parameter = "TGI"
result = "11.7 µM"

[[record]]
compound = "Nc1nc(-c2ccccc2Cl)cc(-c2ccc(Cl)cc2Cl)n1"
parameter = "TGI"
result = "> 100 µM"

